- tgt: HLA-A*02:01 (Homo sapiens, UniProt P04439, D140Y/D185E/D98H/E176V/E277Q/G131W/G231S/I119V/I121R/I166T/I218V/L300P/L318F/N151K/N90K/P208A/P217A/Q86G/Q94H/R138H/R169H/T345S)
- method-notes: MHC binding assay (UV-ligand exchange, beta2m ELISA, peptide exchange yield)
- measurement-parameters: binding to HLA-A*02:01 ranged by peptide exchange yield, β2m ELISA
quantity: Peptide exchange (MHC class I binding score)

| substance | measured |
| --- | --- |
| 153 (ALPKEDPTAV; listed as Homo sapiens) [compound 153] | “+++” (≥50=+++) |
| 69 (VLFSGSLRL; listed as Homo sapiens) [compound 69] | “+++” (≥50=+++) |
| 14 (FIIDNPQDLKV; listed as Homo sapiens) [compound 14] | “+++” (≥50=+++) |

====

- tgt: HLA-A*02:01 (Homo sapiens, UniProt P04439, D140Y/D185E/D98H/E176V/E277Q/G131W/G231S/I119V/I121R/I166T/I218V/L300P/L318F/N151K/N90K/P208A/P217A/Q86G/Q94H/R138H/R169H/T345S)
- method-notes: MHC binding assay (UV-ligand exchange, beta2m ELISA, peptide exchange yield)
- measurement-parameters: binding to HLA-A*02:01 ranged by peptide exchange yield, β2m ELISA
quantity: Peptide exchange (MHC class I binding score)

| substance | measured |
| --- | --- |
| 13 (FIDSSNPGL; listed as Homo sapiens) [compound 13] | “++” (≥20%=++) |
| 96 (ALAPATGGGSLLL; listed as Homo sapiens) [compound 96] | “+++” (≥50=+++) |
| 100 (ALFGAGPASI; listed as Homo sapiens) [compound 100] | “+++” (≥50=+++) |
| 128 (ALYDVRTILL; listed as Homo sapiens) [compound 128] | “+++” (≥50=+++) |
| 142 (SLYGYLRGA; listed as Homo sapiens) [compound 142] | “+++” (≥50=+++) |
| 3 (ILIGETIKI; listed as Homo sapiens) [compound 3] | “+++” (≥50=+++) |
| 102 (ALYPGTDYTV; listed as Homo sapiens) [compound 102] | “+++” (≥50=+++) |
| 92 (YLTNEGIAHL; listed as Homo sapiens) [compound 92] | “++++” (>75%=++++) |
| 5 (ALLTGIISKA; listed as Homo sapiens) [compound 5] | “+++” (≥50=+++) |
| 30 (YIYKDTIQV; listed as Homo sapiens) [compound 30] | “++” (≥20%=++) |
| 123 (KISTITPQI; listed as Homo sapiens) [compound 123] | “++” (≥20%=++) |
| 157 (MLLEIPYMAA; listed as Homo sapiens) [compound 157] | “+++” (≥50=+++) |
| 135 (KLDDTYIKA; listed as Homo sapiens) [compound 135] | “+++” (≥50=+++) |
| 107 (FVYGGPQVQL; listed as Homo sapiens) [compound 107] | “+++” (≥50=+++) |
| 16 (GLIDYDTGI; listed as Homo sapiens) [compound 16] | “+++” (≥50=+++) |
| 146 (VLISGVVHEI; listed as Homo sapiens) [compound 146] | “+++” (≥50=+++) |
| 10 (VLLDKIKNL; listed as Homo sapiens) [compound 10] | “++” (≥20%=++) |
| 148 (YLHNQGIGV; listed as Homo sapiens) [compound 148] | “++” (≥20%=++) |
| 87 (GLLPALVAL; listed as Homo sapiens) [compound 87] | “+++” (≥50=+++) |
| 137 (KLGPEGELL; listed as Homo sapiens) [compound 137] | “+++” (≥50=+++) |
| 103 (AVAAVLTQV; listed as Homo sapiens) [compound 103] | “+++” (≥50=+++) |
| 85 (FLSDGTIISV; listed as Homo sapiens) [compound 85] | “++++” (>75%=++++) |
| 65 (TLNEKLTAL; listed as Homo sapiens) [compound 65] | “+++” (≥50=+++) |
| 130 (FLFGEEPSKL; listed as Homo sapiens) [compound 130] | “+++” (≥50=+++) |
| 2 (FGYDGDFYRA; listed as Homo sapiens) [compound 2] | “+++” (≥50=+++) |
| 47 (LIYKDLVSV; listed as Homo sapiens) [compound 47] | “+++” (≥50=+++) |
| 26 (SLYTALTEA; listed as Homo sapiens) [compound 26] | “+++” (≥50=+++) |
| 49 (LLDGFPRTV; listed as Homo sapiens) [compound 49] | “++” (≥20%=++) |
| 88 (IIDDTIFNL; listed as Homo sapiens) [compound 88] | “+++” (≥50=+++) |
| 109 (ILASVILNV; listed as Homo sapiens) [compound 109] | “++++” (>75%=++++) |
| 73 (VMVDGKPVNL; listed as Homo sapiens) [compound 73] | “++++” (>75%=++++) |
| 119 (VLGDDPQLMKV; listed as Homo sapiens) [compound 119] | “+++” (≥50=+++) |
| 28 (VLDEFYSSL; listed as Homo sapiens) [compound 28] | “+++” (≥50=+++) |
| 6 (ALTGIPLPLI; listed as Homo sapiens) [compound 6] | “+++” (≥50=+++) |
| 121 (YLDEDTIYHL; listed as Homo sapiens) [compound 121] | “++” (≥20%=++) |
| 17 (GLIDYDTGIRL; listed as Homo sapiens) [compound 17] | “+++” (≥50=+++) |
| 129 (ALYEKDNTYL; listed as Homo sapiens) [compound 129] | “+++” (≥50=+++) |
| 145 (TTFPRPVTV; listed as Homo sapiens) [compound 145] | “+++” (≥50=+++) |
| 115 (SLMDPNKFLLL; listed as Homo sapiens) [compound 115] | “+++” (≥50=+++) |
